- System: Canis familiaris
- Test name: Change in left ventricular pressure of anaesthetized, open chest dogs following 0.875 mg/kg i.v. administration.
- Assay type: functional, Canis lupus familiaris, Heart left ventricle
- Settings: route intravenous
We begin with a simple list: items and their reported Increase.
Please don't drop the unit; write it after the number.

COc1cc2c(C)nc(O)c(Cl)c2cc1OC ... 88%

Challenge: # query: Increase of entry `CCCCOc1cc2c(C)nc(O)cc2cc1OC`
Response given: 58%

Challenge: Quick one: Increase of `COC(=O)CCc1c(O)nc(C)c2cc(OC)c(OC)cc12` ?
Response given: 78%

Challenge: Fill in the blank: the reported Increase of `CCOc1cc2c(C)nc(O)cc2cc1OC` is ____.
Response given: 88%

Challenge: Fill blank: measured Increase of the compound `COc1cc2cc(O)nc(C)c2c(OC)c1OC` is ____.
Response given: 45%

Challenge: Look up Increase for this compound: `CNC(=O)CCc1c(O)nc(C)c2cc(OC)c(OC)cc12`
Response given: 40%
